tested on: Wolbachia pipientis; experiment: Anti-Wolbachia Cell-Based Screen; format: functional; set-up: scale not given: in the data most compounds retested in dose-response had high values; settings: 5 µM
In all, about 48,000 compounds went through this assay and about 13,000 (27%) showed an effect of 50% or more. The list shows a part of the results.
QUANTITY MEASURED: Percent Effect (%)
State the answer as a number, implicitly in %.

Answered examples (5):
> print(dat)
                                   compound  number
1  CN(C)C(CNC(=O)NCc1ccco1)c1cccs1 (configuration not stated)   6.587
2        Cc1cc(Cn2cc(C#N)c(=O)c3ccccc32)no1   6.304
3  CN(C)S(=O)(=O)N1C[C@@H]2CC[C@H](C1)N(CCC(=O)NCc1ccco1)C2  -9.336
4  Cc1cccc(CN2C[C@@H]3CN(C(=O)c4conc4C)C[C@@H]3C2=O)c1   2.313
5  CC(C)C(NC(=O)NCc1cccnc1N(C)C)c1cccs1 (configuration not stated)   97.46

Answer with the recorded Percent Effect for the compound listed here: CC(NC(=O)NCc1cccnc1N(C)C)c1cccs1 (configuration not stated)
91.27

Answer with the recorded Percent Effect for the compound listed here: CN(C)c1ncccc1CNC(=O)NCC(c1cccs1)N(C)C (configuration not stated)
101.5

Answer with the recorded Percent Effect for the compound listed here: O=C(NCc1ccccn1)NCC(O)c1ccccc1C(F)(F)F (configuration not stated)
-3.765
